Hello, the source for this data is patent US8354429B2, in case you need it.

Reported EC50 values are given for each entry in this list.
Tested on: HIV-1 2.12 virus with Thr124/Ala125 variant integrase
Test: C8166 HIV-1 luciferase assay (EC50), T124/A125 integrase variant virus
Type: cell-based
Settings: Human immunodeficiency virus 1, C8166, read-out: EC50 (nM) T124/A125
Answer with a number only, understood to be in nM.

Look over these answered cases.
molecule	assay target	unit of measure	EC50
Cc1nc2ccccc2c(-c2ccc3c(c2)CCC3)c1[C@H](OC(C)(C)C)C(=O)O	HIV-1 2.12 virus with Thr124/Ala125 variant integrase	nM	31
Cc1nc2ccccc2c(-c2ccc(Cl)cc2F)c1[C@H](OC(C)(C)C)C(=O)O	HIV-1 2.12 virus with Thr124/Ala125 variant integrase	nM	76
CCC(C)(C)Oc1c(C(C(=O)O)c2ccc3c4c(ccnc24)CCO3)c(C)nc2ccccc12 (stereo not shown)	HIV-1 2.12 virus with Thr124/Ala125 variant integrase	nM	24

Lookup: // fetch EC50; item: Cc1nc2ccccc2c(-c2ccc3c(c2)C(C)CCO3)c1[C@H](OC(C)(C)C)C(=O)O (stereo partly shown) ; system: HIV-1 2.12 virus with Thr124/Ala125 variant integrase
Found: 59
